Target: human FGFR2b (Homo sapiens, UniProt P21802)
Sequence (P21802 22-822 isoform P21802-3 limits assumed): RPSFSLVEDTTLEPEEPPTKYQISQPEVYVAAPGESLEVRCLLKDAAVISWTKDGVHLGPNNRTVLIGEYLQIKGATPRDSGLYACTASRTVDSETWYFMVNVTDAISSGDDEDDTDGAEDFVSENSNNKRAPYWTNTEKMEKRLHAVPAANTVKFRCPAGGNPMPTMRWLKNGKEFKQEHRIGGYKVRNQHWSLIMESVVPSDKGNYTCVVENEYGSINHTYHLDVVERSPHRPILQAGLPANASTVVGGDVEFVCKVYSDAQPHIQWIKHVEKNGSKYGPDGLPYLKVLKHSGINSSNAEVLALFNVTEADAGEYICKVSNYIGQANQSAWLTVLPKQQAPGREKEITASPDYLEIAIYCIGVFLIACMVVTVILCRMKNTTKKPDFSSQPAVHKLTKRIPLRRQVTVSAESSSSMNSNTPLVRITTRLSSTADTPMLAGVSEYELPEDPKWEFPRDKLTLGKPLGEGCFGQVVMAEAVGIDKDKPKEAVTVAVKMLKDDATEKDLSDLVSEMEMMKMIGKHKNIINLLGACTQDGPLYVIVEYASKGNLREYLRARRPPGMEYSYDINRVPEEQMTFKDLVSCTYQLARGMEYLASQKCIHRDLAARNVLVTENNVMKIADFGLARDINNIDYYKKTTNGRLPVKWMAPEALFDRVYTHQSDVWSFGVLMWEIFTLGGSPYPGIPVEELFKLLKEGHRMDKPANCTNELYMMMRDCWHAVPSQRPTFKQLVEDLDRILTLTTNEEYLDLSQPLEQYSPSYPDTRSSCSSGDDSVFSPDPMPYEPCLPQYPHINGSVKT
Test: FACS binding to native FGFR2b on Expi293 cells, human FGFR2b (Example 10)
Conditions: Expi293 cells overexpressing human FGFR2b
Readout type: Emax (MFI)
// return numeric value only (unit: MFI, not printed)

Observe how each entry below is paired with its result.
BGAm1371: parental murine anti-FGFR2b antibody (parental mouse clone); VH SEQ ID NO: 32, VL SEQ ID NO: 34 (antibody, V domains shown, Synthetic: VH AA; Synthetic: VL AA) VH: QVQLKQSGAELVKPGASVKLSCTASGFNIKDTYIHWVKQRPEQGLEWIGRIDPANGNTMFASEFQGKATITAYTSSNTAYMQLSSLTSGDTAVYYCARSKIHYDYDEGFAYWGQGTLVTVSS VL: NIVLTQSPPSLAVSLGQRATVSCRASESVDDYGYSFLHWYQQKPGQPPKLLIYRASNLESGIPARFSGSGSRTDFTLTINPVETDDVATYYCQQSNQNPRTFGGGTKLEIK: 3052664
BGAh9239: humanized anti-FGFR2b IgG1 antibody from murine BGAm1823; VH SEQ ID NO: 9, VL SEQ ID NO: 10 (antibody, V domains shown, Synthetic: VH AA; Synthetic: VL AA) VH: QVQLVQSGAEVKKPGSSVKVSCKASGYTFSIYWLNWVRQAPGQGLEWMGQIYPENADTNYSGKFKGRVTITADKSTSTAYMELSSLRSEDTAVYFCARGGFDYWGQGTLVTVSS VL: DIQMTQSPSSLSASVGDRVTITCRASENIYSNLAWYQQKPGKAPKLLIYTATNLAEGVPSRFSGSGSGTDFTLTISSLQPEDFATYYCQHFYGILYTFGQGTRLEIK: 3082608
BGAh9179: humanized anti-FGFR2b IgG1 antibody from murine BGAm1371; VH SEQ ID NO: 21, VL SEQ ID NO: 22 (antibody, V domains shown, Synthetic: VH AA; Synthetic: VL AA) VH: QVQLVQSGAEVKKPGASVKVSCKASGYTITDTYIHWVRQAPGQGLEWMGRIDPAEGNTMFASEFQGRVTMTADTSTSTVYMELSSLRSEDTAVYYCARSKIHYDYDEGFAYWGQGTLVTVSS VL: DIVLTQSPDSLAVSLGERATINCRASESVDDYGYSFLHWYQQKPGQPPKLLIYRASNLESGVPDRFSGSGSGTDFTLTISSLQAEDVAVYYCQQSNQNPRTFGGGTKVEIK: 2977577

Please turn your attention to the following entry.
Input line: Entry under review: BGAm1823: parental murine anti-FGFR2b antibody; VH SEQ ID NO: 28, VL SEQ ID NO: 30 (antibody, V domains shown, Synthetic: VH AA; Synthetic: VL AA) VH: EVQLQQSGAELVKPGASVKISCKASGYAFSIYWMNWVKQRPGKGLEWIGQIYPENGDTNYNGKFKGKATLTADKSSSTAYMHLSSLTSEDSAVYFCARGGFDYWGQGTTLTVSS VL: NIVMTQSPASLSASVGETVTITCRASENIYSNLAWYQQKQGKSPQLLVYTATNLADGVPSRFSGSGSGTQFSLKINSLQPEDFGSYYCQHFYGILYTFGSGTRLEIK . Reported Emax (MFI)?
Output line: 3092441
